Can you tell me tissue uptake at 1 h for the items I'm about to list?
Test: Blocking experiments: inhibition of radiotracer accumulation in the rat by coadministered compound
Type: in vivo, rat (male Wistar)
Conditions: rat, blood, iv, rat, iv, 60 min, radiotracer only (control); read-out: radioactivity in blood
Write the numeric value and follow it with the unit.

Data request: Tell me the measured tissue uptake at 1 h of OC(Cc1ccc([125I])cc1)CN1CCC(c2ccccc2)CC1 (single isomer, unassigned; (-)) [(-)-4-[^125 l]HIPP] , please.
Data returned: 0.02 %ID/g

Data request: Quick check: tissue uptake at 1 h of OC(CN1CCC(c2ccccc2)CC1)c1ccc([125I])cc1 (single isomer, unassigned; (+)) [(+)-[^125 l]13] ?
Data returned: 0.05 %ID/g

Data request: Given the compound OC(Cc1cccc([125I])c1)CN1CCC(c2ccccc2)CC1 (single isomer, unassigned; (+)) [(+)-[^125 l]12] , what is its reported tissue uptake at 1 h?
Data returned: 0.09 %ID/g

* * *

Test: Blocking experiments: inhibition of radiotracer accumulation in the rat by coadministered compound
Type: in vivo, rat (male Wistar)
Conditions: rat, brain, iv, rat, iv, 60 min, + (+)-7 HCl 0.53 mg/kg; read-out: radioactivity in brain
assay-metric: tissue uptake at 1 h (%ID/g)
Form entry: value (%ID/g) — number only.

Data request: Which tissue uptake at 1 h is reported for this molecule? OC(Cc1ccc([125I])cc1)CN1CCC(c2ccccc2)CC1 (single isomer, unassigned; (-)) [(-)-4-[^125 l]HIPP]
Data returned: 0.28

* * *

For each of the compounds below, state its tissue uptake at 1 h.
Assay: Blocking experiments: inhibition of radiotracer accumulation in the rat by coadministered compound
Format: in vivo, rat (male Wistar)
Conditions: rat, blood, iv, rat, iv, 60 min, + (dl)-vesamicol HCl 0.3 (Table 3) or 0.31 mg/kg; read-out: radioactivity in blood
Record the value in %ID/g, omitting the unit from your answer.

Data request: May I ask what tissue uptake at 1 h has been recorded for OC(Cc1ccc([125I])cc1)CN1CCC(c2ccccc2)CC1 (single isomer, unassigned; (-)) [(-)-4-[^125 l]HIPP] ?
Data returned: 0.02

Data request: Value lookup for tissue uptake at 1 h; key = OC(Cc1cccc([125I])c1)CN1CCC(c2ccccc2)CC1 (single isomer, unassigned; (+)) [(+)-[^125 l]12]
Data returned: 0.12

* * *

Could you please report measured tissue uptake at 1 h for the items listed next?
Test: Blocking experiments: inhibition of radiotracer accumulation in the rat by coadministered compound
Type: in vivo, rat (male Wistar)
Conditions: rat, liver, iv, rat, iv, 60 min, + (dl)-vesamicol HCl 0.3 (Table 3) or 0.31 mg/kg; read-out: radioactivity in liver
Answer format: numeric, %ID/g implied, no suffix.

Data request: Requested field: tissue uptake at 1 h. Item: OC(CN1CCC(c2ccccc2)CC1)c1ccc([125I])cc1 (single isomer, unassigned; (+)) [(+)-[^125 l]13]
Data returned: 2.53

Data request: Requested field: tissue uptake at 1 h. Item: OC(Cc1ccc([125I])cc1)CN1CCC(c2ccccc2)CC1 (single isomer, unassigned; (-)) [(-)-4-[^125 l]HIPP]
Data returned: 4.18

Data request: Which tissue uptake at 1 h is reported for this compound? OC(Cc1cccc([125I])c1)CN1CCC(c2ccccc2)CC1 (single isomer, unassigned; (+)) [(+)-[^125 l]12]
Data returned: 0.87
